Each recorded value in this set is attributed to patent US8609644B2.

TEST_TARGET: Na+, K+-ATPase (Canis lupus familiaris, UniProt P50997)
ASSAY_PROTOCOL: biochemical
Set-up: species or system dog
ASSAY_CONDITIONS: read-out: Na+, K+-ATPase Inhibition IC50
Counter-ions that a name gives are not always drawn.
METRIC: pIC50
Conceptually, pIC50 converts a concentration in mol/L into minus its log10.

// solved cases for pIC50 follow
INSERT INTO results (compound, result) VALUES
  ('C[C@]12CCC(=NOCCN)CC1C[C@H](CO)[C@@H]1[C@@H]2CC[C@]2(C)C(=O)CC[C@@H]12 (stereo partly shown) [I-ca, hydrochloride]', 6.04),
  ('CNCCCON=C1CC[C@@]2(C)C(C1)[C@@H](CO)C(=O)[C@@H]1[C@@H]2CC[C@]2(C)C(=O)CC[C@@H]12 (stereo partly shown)', 7.36),
  ('C[C@]12CC/C(=N/OCCN)CC1[C@@H](C(N)=O)C[C@@H]1[C@@H]2CC[C@]2(C)C(=O)CC[C@@H]12 (stereo partly shown) [I-as, hydrochloride]', 6.20);

Give its pIC50 value. Item: COC1CC2CC(=NOCCN)CCC2(C)C2CCC3(C)C(=O)CCC3C12 (mixture of isomers)
4.85

Input C[C@]12CCC(=NOCCN)CC1C1(CC1)C[C@@H]1[C@@H]2CC[C@]2(C)C(=O)CC[C@@H]12 (stereo partly shown) [I-bl, hydrochloride]
6.07

Input C=C1C[C@@H]2[C@H](CC[C@]3(C)C(=O)CC[C@@H]23)[C@@]2(C)CCC(=NOCCN)CC12 (stereo partly shown) [I-ah, hydrochloride]
7.38

Input "CNCCCON=C1CC[C@]2(C)[C@H]3CC[C@]4(C)C(=O)CC[C@H]4[C@@H]3CC(=NOC)[C@@]2(O)C1"
5.96

----------
// Dead/treated lookup, one value per entry
Tested on: anesthetized guinea-pig
ASSAY_PROTOCOL: Inotropic effect and lethal dose, slow intravenous infusion (over 90 minutes) in anesthetized guinea-pig
ASSAY_CONDITIONS: slow i.v. infusion over 90 minutes
Structures can show the parent of a compound that is named as a salt.

// solved cases for Dead/treated follow
INSERT INTO assay_data (compound, result) VALUES
  ('C[C@]12CCC(=NOCCN)CC1[C@@H](NC=O)C[C@@H]1[C@@H]2CC[C@]2(C)C(=O)CC[C@@H]12.O=C(O)/C=C/C(=O)O (stereo partly drawn) [I-be]', '1/5'),
  ('C=C1C[C@@H]2[C@H](CC[C@]3(C)C(=O)CC[C@@H]23)[C@@]2(C)CC/C(=N\OCCN)CC12.Cl (stereo partly drawn) [I-ai]', '0/5');

Identify the measured Dead/treated of C=C1C[C@H]2[C@@H]3CCC(=O)[C@@]3(C)CC[C@@H]2[C@@]2(C)CCC(=NOCCN)C[C@]12O (mixture of isomers) [I-bq, hydrochloride] for anesthetized guinea-pig.
0/3

----------
TEST_TARGET: Na+, K+-ATPase (Canis lupus familiaris)
ASSAY_PROTOCOL: biochemical
Design: species or system dog
ASSAY_CONDITIONS: Na+, K+-ATPase Inhibition IC50
Where a name gives a salt, the structure may show the parent alone.
METRIC: IC50 (µM)
Write the value in µM as a bare number.

INSERT INTO measurements (molecule, result) VALUES
  ('CC1CC2C3CCC(=O)C3(C)CCC2C2(C)CCC(=NOCCN)CC12 (single isomer, unassigned) [I-ba, hydrochloride]', 0.3),
  ('CC1CC2C3CCC(=O)C3(C)CCC2C2(C)CCC(=NOCCN)CC12 (single isomer, unassigned) [I-az, hydrochloride]', 6),
  ('CO/N=C1\C[C@H]2[C@@H]3CCC(=O)[C@@]3(C)CC[C@@H]2[C@@]2(C)CCC(=NOCCN)C[C@]12O (mixture of isomers)', 0.04);

Give its IC50 value. Item: C=C1C[C@H]2[C@@H]3CCC(=O)[C@@]3(C)CC[C@@H]2[C@@]2(C)CCC(=NOCCNC)C[C@]12O (mixture of isomers) [I-cg, hydrochloride]
2.6

Input CC12CCC3C(C(=O)CC4CC(=NOCCN)CCC43C)C1CCC2=O (mixture of isomers)
0.21

Input CC12CCC3C(C(=C(F)F)CC4CC(=NOCCN)CCC43C)C1CCC2=O (mixture of isomers) [I-ep, hydrochloride]
0.087

----------
// Maximum dose infused lookup, one value per entry
Test system: anesthetized guinea-pig
ASSAY_PROTOCOL: Inotropic effect and lethal dose, slow intravenous infusion (over 90 minutes) in anesthetized guinea-pig
ASSAY_CONDITIONS: maximum dose infused in the survived animals
Counter-ions that a name gives are not always drawn.
In your response, the unit should come after the numeric value.

INSERT INTO assay_data (compound, result) VALUES
  ('CC1CC2C3CCC(=O)C3(C)CCC2C2(C)CCC(=NOCCN)CC12 (single isomer, unassigned) [I-ba, hydrochloride]', '6.3 µmol/kg');

Give its Maximum dose infused value. Item: C[C@]12CCC(=NOCCN)CC1C(=O)C[C@@H]1[C@@H]2CC[C@]2(C)C(=O)CC[C@@H]12.Cl (mixture of isomers) [compd 22b, reference compound]
32.1 µmol/kg

Input CC12CCC3C(CC(CO)C4CC(=NOCCN)CCC43C)C1CCC2=O (single isomer, unassigned) [I-ao, hydrochloride]
12.6 µmol/kg

Input C[C@]12CC[C@H]3[C@@H](CC[C@@]4(O)CC(=NOCCN)CC[C@]34C)[C@@H]1CCC2=O (mixture of isomers)
50.1 µmol/kg

----------
TEST_TARGET: Na+, K+-ATPase (Canis lupus familiaris, UniProt P50997)
ASSAY_PROTOCOL: biochemical
Design: species or system dog
ASSAY_CONDITIONS: Na+, K+-ATPase Inhibition IC50
Counter-ions that a name gives are not always drawn.
METRIC: IC50 (nM)
Write the value in nM as a bare number.

INSERT INTO results (compound, metric, unit_tag, result) VALUES
  ('C[C@]12CCC(=NOCCN)C[C@@H]1C(=C(F)F)C[C@@H]1[C@@H]2CC[C@]2(C)C(=O)CC[C@@H]12 (mixture of isomers) [I-bh, hydrochloride]', 'IC50', 'nM', 190),
  ('C/C=C1\C[C@@H]2[C@H](CC[C@]3(C)C(=O)CC[C@@H]23)[C@@]2(C)CCC(=NOCCN)C[C@H]12 (mixture of isomers) [I-bg, hydrochloride]', 'IC50', 'nM', 1100),
  ('C#CC1CC2C3CCC(=O)C3(C)CCC2C2(C)CCC(=NOCCCNC)CC12 (centres unmarked) [I-cq, hydrochloride]', 'IC50', 'nM', 1200),
  ('C[C@]12CC[C@H]3[C@@H](CC[C@@]4(O)CC(=NOCCN)CC[C@]34C)[C@@H]1CCC2=O (mixture of isomers)', 'IC50', 'nM', 540);

Give its IC50 value. Item: CC12CCC3C(CC(=CCO)C4CC(=NOCCN)CCC43C)C1CCC2=O (mixture of isomers) [I-bj, hydrochloride]
770

Input C=C1CC2CC(=NOCCN)CCC2(C)C2CCC3(C)C(=O)CCC3C12 (mixture of isomers) [I-bx, hydrochloride]
400

Input C#C[C@H]1C[C@@H]2[C@H](CC[C@]3(C)C(=O)CC[C@@H]23)[C@@]2(C)CCC(=NOCCN)C[C@H]12 (mixture of isomers) [I-bd, hydrochloride]
200

Input "C=C1C[C@@H]2[C@H](CC[C@]3(C)C(=O)CC[C@@H]23)[C@@]2(C)CC/C(=N\OCCCNC)C[C@H]12"
380
